target of assay: T1, human PD-L1 (hPD-L1) expressed on transfected 300.19 cells (human, UniProt Q9NZQ7 19-290)
T1 construct: whole, on cells; also called B7H1
T1 sequence (Q9NZQ7 19-290): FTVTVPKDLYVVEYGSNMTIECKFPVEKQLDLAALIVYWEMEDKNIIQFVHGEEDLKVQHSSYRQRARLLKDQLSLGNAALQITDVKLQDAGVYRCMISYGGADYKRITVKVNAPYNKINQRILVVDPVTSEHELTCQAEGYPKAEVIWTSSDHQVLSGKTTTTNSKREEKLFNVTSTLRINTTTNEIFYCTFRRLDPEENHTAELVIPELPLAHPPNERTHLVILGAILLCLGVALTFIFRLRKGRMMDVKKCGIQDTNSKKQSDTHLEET
procedure summary: competition FACS, hPD-L1 300.19 cells, signal = bound hPD-1-mIgG2a, Ab approx 10 ug/ml
Cells PE-A Mean (bound hPD-1-mIgG2a) values for the binders below.
Just the number please, in MFI, no unit attached.

Below: 3 binders and their reported Cells PE-A Mean (bound hPD-1-mIgG2a).
Ab-14 (antibody, V domains shown, also called huPD-L1 Ab # 14) VH: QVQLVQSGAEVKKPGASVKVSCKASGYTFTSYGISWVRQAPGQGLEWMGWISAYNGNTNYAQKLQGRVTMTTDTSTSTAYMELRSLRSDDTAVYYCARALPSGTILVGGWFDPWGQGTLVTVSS VL: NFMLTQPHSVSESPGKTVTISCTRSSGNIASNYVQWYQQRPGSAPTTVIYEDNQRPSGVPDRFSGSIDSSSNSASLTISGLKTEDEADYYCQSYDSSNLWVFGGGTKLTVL; 696
Ab-52 (antibody, V domains shown, also called huPD-L1 Ab # 52) VH: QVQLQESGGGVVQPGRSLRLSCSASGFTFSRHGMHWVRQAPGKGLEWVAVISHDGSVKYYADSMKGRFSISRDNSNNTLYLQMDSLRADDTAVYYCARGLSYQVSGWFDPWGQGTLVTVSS VL: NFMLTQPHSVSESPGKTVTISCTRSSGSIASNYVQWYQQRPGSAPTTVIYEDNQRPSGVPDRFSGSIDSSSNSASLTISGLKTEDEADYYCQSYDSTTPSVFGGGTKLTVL; 380
Ab-50 (antibody, V domains shown, also called huPD-L1 Ab # 50) VH: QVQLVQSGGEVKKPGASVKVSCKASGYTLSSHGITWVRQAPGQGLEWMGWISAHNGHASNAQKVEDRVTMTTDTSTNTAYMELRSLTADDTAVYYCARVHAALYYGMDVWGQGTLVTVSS VL: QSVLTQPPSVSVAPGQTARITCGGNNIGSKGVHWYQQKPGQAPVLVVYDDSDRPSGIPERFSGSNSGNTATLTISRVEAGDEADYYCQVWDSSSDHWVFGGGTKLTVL; 207

Output Cells PE-A Mean (bound hPD-1-mIgG2a) of Ab-55 (antibody, V domains shown, also called huPD-L1 Ab # 55) VH: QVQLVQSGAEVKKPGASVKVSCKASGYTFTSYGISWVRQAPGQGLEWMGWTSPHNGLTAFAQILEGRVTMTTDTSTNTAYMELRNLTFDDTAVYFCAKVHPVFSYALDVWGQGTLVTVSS VL: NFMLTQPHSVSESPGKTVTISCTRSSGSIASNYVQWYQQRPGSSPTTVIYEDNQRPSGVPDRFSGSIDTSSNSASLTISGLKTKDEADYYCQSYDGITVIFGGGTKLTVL
150

Output Cells PE-A Mean (bound hPD-1-mIgG2a) of Ab-30 (antibody, V domains shown, also called huPD-L1 Ab # 30) VH: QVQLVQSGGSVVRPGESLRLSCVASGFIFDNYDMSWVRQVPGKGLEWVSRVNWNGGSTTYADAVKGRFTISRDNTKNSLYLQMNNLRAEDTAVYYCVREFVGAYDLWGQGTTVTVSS VL: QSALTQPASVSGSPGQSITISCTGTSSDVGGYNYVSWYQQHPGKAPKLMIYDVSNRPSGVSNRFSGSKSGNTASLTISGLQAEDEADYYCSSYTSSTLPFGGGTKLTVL
244

Output Cells PE-A Mean (bound hPD-1-mIgG2a) of Ab-42 (antibody, V domains shown, also called huPD-L1 Ab # 42; mAb42) VH: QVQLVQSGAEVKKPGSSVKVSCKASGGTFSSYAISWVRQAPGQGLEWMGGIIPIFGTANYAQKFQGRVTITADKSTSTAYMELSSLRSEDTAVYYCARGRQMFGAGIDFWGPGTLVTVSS VL: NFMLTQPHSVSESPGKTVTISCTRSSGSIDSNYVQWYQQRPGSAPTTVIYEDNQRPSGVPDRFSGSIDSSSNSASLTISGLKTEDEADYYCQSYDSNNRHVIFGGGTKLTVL
139

Output Cells PE-A Mean (bound hPD-1-mIgG2a) of Ab-31 (antibody, V domains shown, also called huPD-L1 Ab # 31) VH: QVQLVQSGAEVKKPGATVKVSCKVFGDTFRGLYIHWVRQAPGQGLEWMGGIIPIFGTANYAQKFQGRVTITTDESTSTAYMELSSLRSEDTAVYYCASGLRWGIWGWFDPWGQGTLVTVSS VL: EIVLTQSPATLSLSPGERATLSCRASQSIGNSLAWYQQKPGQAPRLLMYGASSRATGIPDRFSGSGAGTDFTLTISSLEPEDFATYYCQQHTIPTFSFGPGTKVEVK
157

// data source = patent US20200385482A1
